For each entry below, report its pIC50 value.
assayed_system: Topoisomerase IV (Staphylococcus aureus, UniProt P0C1S7+P0C1U9)
Sequence (P0C1U9 whole entry): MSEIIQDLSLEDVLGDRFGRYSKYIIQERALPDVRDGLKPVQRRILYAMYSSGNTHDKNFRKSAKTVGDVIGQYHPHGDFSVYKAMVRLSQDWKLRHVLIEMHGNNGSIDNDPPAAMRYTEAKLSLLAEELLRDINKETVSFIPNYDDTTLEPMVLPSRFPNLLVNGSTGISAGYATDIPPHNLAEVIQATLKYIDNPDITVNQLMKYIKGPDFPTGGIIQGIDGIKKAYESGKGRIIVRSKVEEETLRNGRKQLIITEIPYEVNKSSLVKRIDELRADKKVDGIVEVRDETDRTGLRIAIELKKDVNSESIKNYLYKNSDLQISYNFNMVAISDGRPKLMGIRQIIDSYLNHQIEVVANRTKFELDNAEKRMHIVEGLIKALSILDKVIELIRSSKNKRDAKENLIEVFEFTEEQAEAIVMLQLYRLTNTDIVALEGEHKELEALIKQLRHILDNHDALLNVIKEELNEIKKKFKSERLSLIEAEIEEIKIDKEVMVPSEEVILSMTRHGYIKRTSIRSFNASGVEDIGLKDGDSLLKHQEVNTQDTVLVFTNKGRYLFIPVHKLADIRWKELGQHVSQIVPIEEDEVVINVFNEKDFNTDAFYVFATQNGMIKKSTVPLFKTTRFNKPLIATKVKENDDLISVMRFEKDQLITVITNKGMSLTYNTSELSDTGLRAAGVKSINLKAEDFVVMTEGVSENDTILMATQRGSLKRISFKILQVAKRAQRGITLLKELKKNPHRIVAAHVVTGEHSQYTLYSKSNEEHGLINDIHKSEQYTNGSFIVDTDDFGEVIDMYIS
Sequence (P0C1S7 whole entry): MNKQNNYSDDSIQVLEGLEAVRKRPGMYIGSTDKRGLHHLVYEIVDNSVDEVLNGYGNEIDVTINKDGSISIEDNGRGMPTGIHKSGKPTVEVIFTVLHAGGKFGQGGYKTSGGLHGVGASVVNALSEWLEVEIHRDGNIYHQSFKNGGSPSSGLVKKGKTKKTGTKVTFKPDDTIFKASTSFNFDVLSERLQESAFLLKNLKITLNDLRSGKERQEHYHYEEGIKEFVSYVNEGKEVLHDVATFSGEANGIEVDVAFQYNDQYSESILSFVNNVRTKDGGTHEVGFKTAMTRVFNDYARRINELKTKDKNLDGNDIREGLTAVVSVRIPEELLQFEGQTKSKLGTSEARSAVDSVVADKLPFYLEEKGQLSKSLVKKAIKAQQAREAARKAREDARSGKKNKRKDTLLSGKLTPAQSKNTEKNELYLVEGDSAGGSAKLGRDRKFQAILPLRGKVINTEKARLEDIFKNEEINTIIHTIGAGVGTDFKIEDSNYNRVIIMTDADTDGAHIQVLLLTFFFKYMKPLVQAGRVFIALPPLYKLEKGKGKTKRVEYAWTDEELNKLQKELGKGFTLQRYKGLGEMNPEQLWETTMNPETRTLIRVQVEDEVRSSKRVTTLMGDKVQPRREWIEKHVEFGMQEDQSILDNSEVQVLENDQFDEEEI
measurement_description: Inhibition of Staphylococcus aureus topoisomerase 4 assessed as reduction in decatenation using kDNA as substrate incubated for 30 mins by fluorimetric assay
When answering, recall that pIC50 equals minus log10 of the concentration in mol/L, and write that number alone.

Form: Entry = O=C(CCN1CCN(c2cc3c(cc2F)c(=O)c(C(=O)O)cn3C2CC2)CC1)Nc1ccc(S(=O)(=O)Nc2ncccn2)cc1 | System = Topoisomerase IV (Staphylococcus aureus, UniProt P0C1S7+P0C1U9) | pIC50 = ____ 5.74

# repeat for CC(C(=O)Nc1ccc(S(=O)(=O)Nc2cnc3ccccc3n2)cc1)N1CCN(c2cc3c(cc2F)c(=O)c(C(=O)O)cn3C2CC2)CC1 (centres undefined) 5.92

Follow-up entry: NS(=O)(=O)c1ccc(/N=N/N2CCN(c3cc4c(cc3F)c(=O)c(C(=O)O)cn4C3CC3)CC2)cc1 5.61

Also check O=C(O)c1cn(C2CC2)c2cc(N3CCN(/N=N/c4ccc(S(=O)(=O)Nc5cnc6ccccc6n5)cc4)CC3)c(F)cc2c1=O 4.89
